Molecular target: Protein kinase C alpha type (Homo sapiens, UniProt P17252)
Test: Displacement of [3H]PDBu from human recombinant Protein kinase C alpha
property_label: Ki (nM)

CCCCC1(CCCC)CC[C@H]2CC(=O)N[C@@H](CO)C[C@]2(C)C1 :: 190
CCCCC1(CCCC)CC[C@H]2[C@H](C)C(=O)N[C@H](CO)C[C@]2(C)C1 :: 21
CCCCCCCC[C@@H]1C(=O)N[C@H](CO)C[C@]2(C)CC(CCCC)(CCCC)CC[C@@H]12 :: 11

[1] CCCCC1(CCCC)CC[C@H]2CC(=O)N[C@H](CO)C[C@]2(C)C1
[2] CCCC[C@@H]1C(=O)N[C@H](CO)C[C@]2(C)CC(CCCC)(CCCC)CC[C@@H]12
Asked: Pick one, 1 or 2 : lowest reported Ki. Please indicate the selected item by its label.
Given back: 2
